Assay: Her2 expression decrease, cell viability multiplex – SKBR3 breast tumor cells, AlphaScreen, ATP viability, primary screen (AID 461);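 note: percent of carrier control wells set as 100% viability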
Conditions: SKBR3 Her2 protein level, 18-24 h, measured here: SKBR3 viability, ATP luminescence, at 10 µM
Here, each record is paired with measured viability data.
PROPERTY_MEASURED: viability (%)

INSERT INTO results (molecule, reported) VALUES
  ('COC(=O)c1cncn1C(C)c1ccccc1 (stereo not drawn)', 88.5),
  ('CC#CP(=O)(OCC)C(O)(c1ccccc1)C(F)(F)F (stereo not drawn)', 91),
  ('CCCCNC(=O)c1c(N)n(CCCOC)c2nc3ccccc3nc12', 89);

###

Here, each record is paired with measured growth inhibition data.
Assay: S. cerevisiae growth inhibition in restrictive medium, OD615, pilot screen, restrictive growth control, yeast lifespan reduction project (AID 706);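 note: modified DeaD lifespan yeast strain shifted to restrictive glucose medium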
Conditions: OD615, 48 h, at 10 µM, stronger effect = higher value
The source made the active and inactive calls.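 Rule for the calls: active = growth inhibition above a set limit, 3 SD over mean compound inhibition, in both replicates (cut at about 43% in these data); inconclusive = above the limit in only one replicate; inactive = at or below the limit in both replicates.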
PROPERTY_MEASURED: growth inhibition

INSERT INTO assay_data (molecule, reported) VALUES
  ('CC(=O)c1cccc(NC2=NCC(C)S2)c1 (centres undefined)', '-13.1% (inactive)'),
  ('COCCOC(=O)C1=C(N)OC(C)=C(C(=O)OC)C12C(=O)Nc1ccccc12 (centres undefined)', '-5.97% (inactive)'),
  ('CC1(C)CC(n2[nH]c(=O)c3c2NC(=O)CSC3c2ccc(F)cc2)CCO1 (centres undefined)', '-25.8% (inactive)'),
  ('Cc1ccc(-n2nc(C)c3c2NC(=O)CSC3c2ccc3c(c2)OCO3)cc1 (centres undefined)', '2.3% (inactive)'),
  ('CCCOc1ccccc1C1SCC(=O)Nc2c1c(=O)[nH]n2C(C)CCC (centres undefined)', '-5.25% (inactive)'),
  ('COC(=O)C(O)(c1ccc(N(C)S(=O)(=O)c2ccccc2)cc1)C(F)(F)F (centres undefined)', '2.86% (inactive)'),
  ('NC(=O)CN1CC(c2ccccc2)CC1=O (centres undefined)', '-19.9% (inactive)'),
  ('CN1CSC(=S)N(C)C1', '63.5% (active)'),
  ('FC(F)(F)/C(=N\P(=S)(N1CCOCC1)N1CCOCC1)N1CCOCC1', '-10.3% (inactive)'),
  ('CC12CNCC(C)(CNC1)C2O (centres undefined)', '-2.77% (inactive)'),
  ('Cc1nc2cc(C(F)(F)F)ccc2n1C1CCN(Cc2nnnn2Cc2cccs2)CC1', '-18.3% (inactive)'),
  ('CC1CCCCN1CC(=O)c1ccc2cc[nH]c2c1 (centres undefined)', '3.28% (inactive)'),
  ('Cc1cc(OCC(=O)OC(C)(C)C)c2c3c(c(=O)oc2c1)CCC3', '-17% (inactive)'),
  ('COC(=NC1CCCC1)C(O)c1c[nH]c2ccccc12 (centres undefined)', '-12.5% (inactive)');

###

Target: Pantothenate synthetase (Mycobacterium tuberculosis (strain ATCC 25618 / H37Rv)) (UniProt P9WIL5)
Sequence (P9WIL5 whole entry, looked up): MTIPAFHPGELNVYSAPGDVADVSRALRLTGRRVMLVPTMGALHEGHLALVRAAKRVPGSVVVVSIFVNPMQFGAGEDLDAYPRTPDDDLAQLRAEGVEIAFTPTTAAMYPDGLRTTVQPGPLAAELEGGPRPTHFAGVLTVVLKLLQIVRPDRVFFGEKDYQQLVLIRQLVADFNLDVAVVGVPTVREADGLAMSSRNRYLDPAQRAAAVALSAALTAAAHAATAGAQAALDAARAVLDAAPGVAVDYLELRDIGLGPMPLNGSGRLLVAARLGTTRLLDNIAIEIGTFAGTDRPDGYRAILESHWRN
Experiment: Coupled enzyme confirmation of inhibitors against recombinant Mtb PanC (AID 375);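 note: 0% = full reaction with vehicle and 100% = no enzyme background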
Conditions: coupled enzyme assay; at 10 µM, stronger effect = higher value
PROPERTY_MEASURED: inhibition (%)

INSERT INTO measurements (compound, property_measured, units_label, reported) VALUES
  ('COCCNC(=O)c1ccc(Cl)c(Cl)c1', 'inhibition', '%', 0),
  ('O=c1c2[nH]c3cccc(Cl)c3c2ncn1CCN1CCCCC1', 'inhibition', '%', 6),
  ('Cc1nc2ccc(S(=O)(=O)NCC(=O)N(C)Cc3ccco3)cc2s1', 'inhibition', '%', 0),
  ('Nc1nc(CN2CCOCC2)cs1', 'inhibition', '%', 1),
  ('Cc1csc2ncc(C(=O)Nc3ccccc3Cl)c(=O)n12', 'inhibition', '%', 3),
  ('CCCOc1ccc(N2C(=O)CC(NCCCN3CCC(C(N)=O)CC3)C2=O)cc1 (centres undefined)', 'inhibition', '%', 4),
  ('FC(F)Oc1ccc(-c2csc(Cc3nnc4n3CCCCC4)n2)cc1', 'inhibition', '%', 0),
  ('CN(C)C(=O)N1CCN(C(=O)c2ccco2)CC1', 'inhibition', '%', 0),
  ('COc1ccccc1-c1cc(C(=O)Nc2cc(C)nn2-c2ccccc2)no1', 'inhibition', '%', 6),
  ('COc1ccc(C)cc1NC(=O)CN(Cc1nnc(-c2ccc(Cl)cc2)o1)C1CCCC1', 'inhibition', '%', 0),
  ('COc1ccc2c(=O)c3c(=O)n(Cc4ccco4)c(C(C)C)nc3oc2c1', 'inhibition', '%', 0),
  ('CCOC(=O)c1sc(NC(=O)CSc2nnnn2-c2ccccc2)c(C(=O)OCC)c1C', 'inhibition', '%', 0),
  ('CC(C)c1nnc(SCC(=O)NCc2ccco2)n1C', 'inhibition', '%', 0),
  ('Cc1ccnc(-n2c(-c3ccco3)nc3ccccc3c2=O)c1', 'inhibition', '%', 0),
  ('Cc1ccc2c(c1C)NC(=O)C2(O)CC(=O)c1ccc2c(c1)OCO2 (centres undefined)', 'inhibition', '%', 0),
  ('Cc1cc(C)c2c(N)c(C(=O)N3CCN(c4ncccn4)CC3)sc2n1', 'inhibition', '%', 3),
  ('CCCSc1nc2c(cnn2-c2ccc(Cl)cc2)c(=O)[nH]1', 'inhibition', '%', 0),
  ('COCCn1c(=N)c(C(=O)NCCc2ccccc2)cc2c(=O)n3cccc(C)c3nc21', 'inhibition', '%', 3),
  ('COc1cccc(OC)c1OCCN1CCN(C(=O)c2ccco2)CC1', 'inhibition', '%', 0),
  ('CC(C)(C)n1ncc2c(=O)n(CC(=O)NCc3ccc(F)cc3)cnc21', 'inhibition', '%', 4),
  ('COc1ccccc1N1CCN(C(=O)CCNS(=O)(=O)c2ccc3c(c2)CCC(=O)N3)CC1', 'inhibition', '%', 0),
  ('O=C(OCc1nnc(-c2ccccc2)o1)c1ccc2ccccc2n1', 'inhibition', '%', 1),
  ('CN(CC(=O)N1CCN(C2CCCCC2)CC1)S(=O)(=O)c1cccc2nsnc12', 'inhibition', '%', 8),
  ('CCOC(=O)C1=C(C)NC(C)=C(C(=O)OC)C1c1cccc(Cl)c1Cl (centres undefined)', 'inhibition', '%', 4),
  ('CC(=NCc1ccc2c(c1)OCO2)c1c(O)n(C)c(=O)n(C)c1=O', 'inhibition', '%', 6),
  ('Cc1c[nH]c2cccc(OCC(O)CNC(C)(C)C)c12 (centres undefined)', 'inhibition', '%', 0),
  ('CCCOc1ccc(N2C(=O)C3ON(c4ccccc4)C(c4ccc(O)c(OC)c4)C3C2=O)cc1 (centres undefined)', 'inhibition', '%', 1),
  ('COc1ccc2c3c(c(=O)oc2c1OCC(N)=O)CCCC3', 'inhibition', '%', 2),
  ('O=C(Cn1cc(C(=O)c2ccccc2)c2ccccc21)NCc1ccco1', 'inhibition', '%', 2),
  ('COc1ccccc1NC1=NC2(CCCC2)N=C(N)N1', 'inhibition', '%', 0),
  ('CCOc1ccc(NC(=O)c2ccccc2O)cc1', 'inhibition', '%', 0),
  ('CCCN(Cc1cc2ccc(C)cc2[nH]c1=O)C(=O)c1cccnc1', 'inhibition', '%', 2),
  ('CC1(C)C(c2ccccc2)=NC(c2cccnc2)N1O (centres undefined)', 'inhibition', '%', 0),
  ('O=C(Cc1cccs1)N(c1ccccc1)C1C=CS(=O)(=O)C1 (centres undefined)', 'inhibition', '%', 3);
